Target: T1, EsCas13d, nuclease-dead (Eubacterium siraeum, UniProt B0MS50, R295A;H300A;R849A;H854A)
T1 sequence: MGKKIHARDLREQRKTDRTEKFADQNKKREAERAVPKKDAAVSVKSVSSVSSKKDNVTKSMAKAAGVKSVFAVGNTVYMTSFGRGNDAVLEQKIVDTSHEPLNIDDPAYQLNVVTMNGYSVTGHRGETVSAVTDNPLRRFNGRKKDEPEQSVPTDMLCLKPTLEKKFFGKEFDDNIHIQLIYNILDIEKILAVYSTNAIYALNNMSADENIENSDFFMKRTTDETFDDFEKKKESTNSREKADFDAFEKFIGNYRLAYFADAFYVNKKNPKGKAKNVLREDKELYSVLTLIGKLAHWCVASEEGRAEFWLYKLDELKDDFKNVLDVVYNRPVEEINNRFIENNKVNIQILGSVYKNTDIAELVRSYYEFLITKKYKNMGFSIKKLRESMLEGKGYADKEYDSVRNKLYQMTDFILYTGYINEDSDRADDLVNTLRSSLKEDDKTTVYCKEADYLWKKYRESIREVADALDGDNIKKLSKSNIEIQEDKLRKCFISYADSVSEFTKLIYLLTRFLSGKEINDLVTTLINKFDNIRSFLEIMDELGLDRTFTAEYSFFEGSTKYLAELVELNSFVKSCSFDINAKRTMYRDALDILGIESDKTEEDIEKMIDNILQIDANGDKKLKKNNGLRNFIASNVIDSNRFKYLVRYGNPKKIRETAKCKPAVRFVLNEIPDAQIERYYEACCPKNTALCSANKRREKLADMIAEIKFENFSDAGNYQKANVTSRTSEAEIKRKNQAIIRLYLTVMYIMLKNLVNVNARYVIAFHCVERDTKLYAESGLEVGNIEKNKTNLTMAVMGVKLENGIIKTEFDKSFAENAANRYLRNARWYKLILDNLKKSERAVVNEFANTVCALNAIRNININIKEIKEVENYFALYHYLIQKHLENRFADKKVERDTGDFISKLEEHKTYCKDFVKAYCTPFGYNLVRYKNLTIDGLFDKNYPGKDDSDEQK
Experiment: crRNA (strand 1, pre-loaded); Mg2+; 40 mM Tris-HCl pH 7.5, 150 mM NaCl, 6 mM MgCl2, 1 mM DTT, 0.1% Tween-20, 0.2 mg/ml BSA; 25 C; 10 min per concentration, then washed
Conditions: tags: His6-TwinStrep-SUMO cleaved; N-terminal SNAP kept (SNAP-Surface 488); label: 3' end held by stalled T7 RNA polymerase
readoutKind: pKd
pKd (log units): -log10 of the concentration in mol/L.

Would you please look over these solved cases?
| binder | endpointResult |
| --- | --- |
| target 2 MT 5'PFS GUC 3'PFS AUC (mixed) RNA 1: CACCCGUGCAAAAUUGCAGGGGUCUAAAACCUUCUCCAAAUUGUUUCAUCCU RNA 2: GGGAAUGGAUCCACAUCUACGAAUUCGUCAGGAUGAAACAAUUUGGAGAAGAUCAGAUCGGAAGAGCACACGU | 7.87 |
| target 3 G4U,U8G (mixed) RNA 1: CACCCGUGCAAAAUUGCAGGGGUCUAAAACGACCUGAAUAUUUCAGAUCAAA RNA 2: GGGAAUGGAUCCACAUCUACGAAUUCGUUUUUGAUCUGAAAUAGUCAUGUCUGCAGAUCGGAAGAGCACACGU | 7.78 |

// query For the binder shown here, target 3 C6U,A11G (mixed) RNA 1: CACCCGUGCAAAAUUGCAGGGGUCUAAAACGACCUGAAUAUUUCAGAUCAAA RNA 2: GGGAAUGGAUCCACAUCUACGAAUUCGUUUUUGAUCUGAAGUAUUUAGGUCUGCAGAUCGGAAGAGCACACGU , give the reported pKd.
// result 7.33

// query Next binder: target 1 A14G (mixed) RNA 1: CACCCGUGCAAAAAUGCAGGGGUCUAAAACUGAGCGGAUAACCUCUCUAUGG RNA 2: GGGAAUGGAUCCACAUCUACGAAUUCGUACCAUAGAGGGGUUAUCCGCUCACCGAGAUCGGAAGAGCACACGU
// result 7.86

// query How about this binder: target 1 insG 3' of 14,insU 3' of 13 (mixed) RNA 1: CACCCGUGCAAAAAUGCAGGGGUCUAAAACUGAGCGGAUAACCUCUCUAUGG RNA 2: GGGAAUGGAUCCACAUCUACGAAUUCGUACCAUAGAGAGGUGUUAUCCGCUCACCGAGAUCGGAAGAGCACACGU
// result 7.64
